- TARGET_OR_SYSTEM: ΔF508-CFTR (Homo sapiens, UniProt P13569, DEL508-508)
- Sequence (P13569 with tags, fused parts or gaps DEL508-508): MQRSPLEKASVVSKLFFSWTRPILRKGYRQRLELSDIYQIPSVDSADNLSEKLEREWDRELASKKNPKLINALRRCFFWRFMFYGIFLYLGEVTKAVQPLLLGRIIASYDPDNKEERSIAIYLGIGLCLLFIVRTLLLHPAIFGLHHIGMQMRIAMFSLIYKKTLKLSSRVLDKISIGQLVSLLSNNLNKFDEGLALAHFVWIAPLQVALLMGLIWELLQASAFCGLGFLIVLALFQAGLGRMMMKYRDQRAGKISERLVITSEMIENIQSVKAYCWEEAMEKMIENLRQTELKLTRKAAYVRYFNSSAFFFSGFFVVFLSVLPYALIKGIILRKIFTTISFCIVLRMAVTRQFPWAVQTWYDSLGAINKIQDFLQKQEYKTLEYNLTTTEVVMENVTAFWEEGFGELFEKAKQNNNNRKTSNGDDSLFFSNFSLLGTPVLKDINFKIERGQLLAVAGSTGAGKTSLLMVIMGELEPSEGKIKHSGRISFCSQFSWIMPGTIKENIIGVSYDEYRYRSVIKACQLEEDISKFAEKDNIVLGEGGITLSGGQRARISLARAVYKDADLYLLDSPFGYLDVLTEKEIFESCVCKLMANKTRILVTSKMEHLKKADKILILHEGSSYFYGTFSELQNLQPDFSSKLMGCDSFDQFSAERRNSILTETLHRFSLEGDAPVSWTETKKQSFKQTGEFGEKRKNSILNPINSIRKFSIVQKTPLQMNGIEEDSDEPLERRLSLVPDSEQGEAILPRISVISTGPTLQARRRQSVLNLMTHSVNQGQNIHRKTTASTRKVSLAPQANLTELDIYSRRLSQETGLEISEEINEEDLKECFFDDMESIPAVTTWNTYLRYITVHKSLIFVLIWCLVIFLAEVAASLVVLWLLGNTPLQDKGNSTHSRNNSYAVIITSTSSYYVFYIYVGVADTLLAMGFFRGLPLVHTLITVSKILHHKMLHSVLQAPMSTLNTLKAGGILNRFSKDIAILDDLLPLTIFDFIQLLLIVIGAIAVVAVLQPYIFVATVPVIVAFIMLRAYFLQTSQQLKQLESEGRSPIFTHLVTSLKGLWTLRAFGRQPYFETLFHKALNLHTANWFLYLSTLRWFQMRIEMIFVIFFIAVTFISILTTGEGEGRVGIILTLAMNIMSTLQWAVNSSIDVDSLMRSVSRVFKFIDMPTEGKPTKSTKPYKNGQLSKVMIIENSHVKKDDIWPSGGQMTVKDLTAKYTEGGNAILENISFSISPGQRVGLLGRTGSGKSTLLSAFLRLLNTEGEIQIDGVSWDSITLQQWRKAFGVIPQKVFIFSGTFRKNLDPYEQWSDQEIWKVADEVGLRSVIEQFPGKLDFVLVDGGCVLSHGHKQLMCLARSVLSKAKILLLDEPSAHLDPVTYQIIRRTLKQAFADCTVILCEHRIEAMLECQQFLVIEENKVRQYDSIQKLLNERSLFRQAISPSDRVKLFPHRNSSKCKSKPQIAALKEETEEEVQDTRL
- ASSAY_DETAILS: Membrane potential optical assay (FRET/VIPR), identification of correction compounds
pEC50: −log10 of the molar value.
Hi there, I'd appreciate the recorded pEC50 for every entry that follows.

Here are 10 compounds together with their reported answers.
COMPOUND	TARGET_OR_SYSTEM	MEASURED_RESULT
COc1ccc(S(=O)(=O)N2CCN(C(C)c3nc(N4CC=CCC4)c4ccccc4n3)CC2)cc1 (centres unmarked)	ΔF508-CFTR (Homo sapiens, UniProt P13569, DEL508-508)	> 5.00
COc1ccc(S(=O)(=O)N2CCN(C(C)c3nc(Nc4ccccc4)c4ccccc4n3)CC2)cc1 (centres unmarked)	ΔF508-CFTR (Homo sapiens, UniProt P13569, DEL508-508)	> 5.00
CCCOc1nc(C(C)N2CCN(S(=O)(=O)c3ccc(OC)cc3)CC2)nc2ccccc12 (centres unmarked)	ΔF508-CFTR (Homo sapiens, UniProt P13569, DEL508-508)	4.60 to 5.00
CC(c1nc2ccccc2c(=O)n1C)N1CCN(S(=O)(=O)c2ccc(-c3ccccn3)s2)CC1 (centres unmarked)	ΔF508-CFTR (Homo sapiens, UniProt P13569, DEL508-508)	4.22 to 4.60
COc1ccc(S(=O)(=O)N2CCN(C(C)c3nc(OCC4(C)COCOC4)c4ccccc4n3)CC2)cc1 (centres unmarked)	ΔF508-CFTR (Homo sapiens, UniProt P13569, DEL508-508)	4.60 to 5.00
CCCOc1nc(CC)nc2ccccc12	ΔF508-CFTR (Homo sapiens, UniProt P13569, DEL508-508)	4.22 to 4.60
CC(c1nc2ccc(Cl)cc2c(=O)n1C)N1CCN(C(=O)Nc2ccccc2Br)C(C)C1 (centres unmarked)	ΔF508-CFTR (Homo sapiens, UniProt P13569, DEL508-508)	4.22 to 4.60
COc1ccc(S(=O)(=O)N2CCN(C(C)c3nccc(OC4CCCC4)n3)CC2)cc1 (centres unmarked)	ΔF508-CFTR (Homo sapiens, UniProt P13569, DEL508-508)	4.60 to 5.00
CC(c1nc(N2CCCCC2)c2ccccc2n1)N1CCN(S(=O)(=O)c2ccc(Cl)cc2)CC1 (centres unmarked)	ΔF508-CFTR (Homo sapiens, UniProt P13569, DEL508-508)	> 5.00
COc1ccc(S(=O)(=O)N2CCN(C(C)c3nc(N4CCC(C)CC4)c4cc(F)ccc4n3)CC2)cc1 (centres unmarked)	ΔF508-CFTR (Homo sapiens, UniProt P13569, DEL508-508)	4.60 to 5.00

Consider the following items and state reported pEC50 for each.
1. CC(c1nc2ccccc2c(=O)n1C)N1CC2CC1CN2 (centres unmarked)
2. CC(NCCNS(=O)(=O)c1ccc(Cl)cc1)c1nc2ccccc2c(=O)n1C (centres unmarked)
3. COc1ccc2nc(C(C)N3CCN(S(=O)(=O)c4ccc(Cl)cc4)CC3)n(C)c(=O)c2c1 (centres unmarked)
4. CC(c1nc2cc(Cl)ccc2c(=O)n1C)N1CCN(S(=O)(=O)c2ccc(Br)cc2)CC1 (centres unmarked)
5. CC(=O)Nc1ccc(S(=O)(=O)N2CCN(C(C)c3nc4ccccc4c(=O)n3C)CC2)cc1 (centres unmarked)
6. CC(c1nc2ccc(Cl)cc2c(=O)n1C)N1CCN(S(=O)(=O)c2ccc(C(F)(F)F)cc2)CC1 (centres unmarked)
7. CC(c1nc2ccccc2c(=O)n1C)N1CCN(S(=O)(=O)c2ccc(C(F)(F)F)cc2)CC1 (centres unmarked)
8. Cc1noc(C)c1S(=O)(=O)N1CCN(C(C)c2nc3ccccc3c(=O)n2C)CC1 (centres unmarked)

Outgoing:
1. 4.22 to 4.60
2. 4.22 to 4.60
3. > 5.00
4. > 5.00
5. 4.22 to 4.60
6. > 5.00
7. > 5.00
8. 4.22 to 4.60
